Hello, the source for this data is ChEMBL document CHEMBL1201862, in case you need it.

# GI50 per record follows
# Test system: KM-20L2
# method_notes: NCI tumour cell line growth inhibition, 48 h
Calls of active or inactive are those of the source. Rule as the data show it: active = GI50 up to about 1.1 µM and inactive = higher.

Some compounds with recorded GI50:
compound	readout_value
Cc1ccccc1NC(=O)C(=O)CC(=O)c1ccc([N+](=O)[O-])cc1	> 100 µM (inactive)
O=C(Nc1ccccc1)n1cc(-c2ccccn2)c(N2CCOCC2)n1	2.68 µM (inactive)
CC12CCC(=O)C[C@H]1CCC(OC=O)C2Br (stereo partly drawn)	> 100 µM (inactive)

Value of measured GI50 for the entry `CC[C@H]1[C@@H](C)C=C[C@@H](C)N1S(=O)(=O)c1ccc(C)cc1` : > 100 µM (inactive)

Value of measured GI50 for the entry `NCCNc1ccc(NCCN)c2c1C(=O)c1c(O)ccc(O)c1C2=O` : 0.0181 µM (active)

Value of measured GI50 for the entry COc1cc(C2C(Cl)C(=O)N2NC(=O)Cc2ccccc2)ccc1O (stereo not drawn) : > 100 µM (inactive)

Value of measured GI50 for the entry `COc1ccc(C(=O)Nc2ccc(S(=O)(=O)NCC(=O)O)cc2)cc1` : > 100 µM (inactive)

Value of measured GI50 for the entry `Cc1ccc(NC(=O)CC/C(CC(=O)C(C)(C)C)=N\Nc2ccc([N+](=O)[O-])cc2[N+](=O)[O-])cc1C` : > 100 µM (inactive)

Value of measured GI50 for the entry `Cc1ccc(Sc2ccccc2[N+](=O)[O-])cc1` : 33.3 µM (inactive)

Value of measured GI50 for the entry `O=C(C=P(c1ccccc1)(c1ccccc1)c1ccccc1)CC(=S)CC(=O)C=P(c1ccccc1)(c1ccccc1)c1ccccc1` : 4.29 µM (inactive)

Value of measured GI50 for the entry Cc1ccccc1NC(=O)/C(=N\NC(N)=S)C(C#N)c1ccccc1 (stereo not drawn) : > 100 µM (inactive)
